Recorded values, source ChEMBL document CHEMBL2203039.

Procedure summary: Volume of distribution at steady state in rat at 2 mg/kg, iv
Type: ADME, organism-based
Parameters: dose 2 mg/kg, route intravenous
Condition summary: in vivo, read-out: Vdss
Quick list: Vd per entry.
Measured attribute: Vd (L/kg)

INSERT INTO assay_data (compound, measured_attribute, data_value) VALUES
  ('CC(=O)NC1CC2CCC(C1)N2Cc1ccc(Oc2nc3ncccc3s2)cc1 (configuration not stated)', 'Vd', 3.5),
  ('CC(=O)N1CC2CC1CN2Cc1ccc(Oc2nc3ncccc3s2)cc1 (configuration not stated)', 'Vd', 1.4);

* * *

Procedure summary: Half life in rat at 2 mg/kg, iv
Type: ADME, organism-based
Set-up: dose 2 mg/kg, route intravenous
Condition summary: in vivo
Measured attribute: half-life

INSERT INTO results (molecule, data_value) VALUES
  ('CC(=O)N1CC2CC1CN2Cc1ccc(Oc2nc3ncccc3s2)cc1 (configuration not stated)', '3.3 h'),
  ('CC(=O)NC1CC2CCC(C1)N2Cc1ccc(Oc2nc3ncccc3s2)cc1 (configuration not stated)', '2 h');

* * *

Listed next: entries and their corresponding IC50.
Species on record: Mus musculus
Procedure summary: animal or person
Format: functional, organism-based
Condition summary: Balb/c, Blood
Measured attribute: IC50 (nM)

INSERT INTO assay_data (compound, data_value) VALUES
  ('NC(=O)C1CCN(CCc2ccc(Oc3nc4ncccc4s3)cc2)CC1', 50),
  ('O=C1CCCN1C1CCN(Cc2ccc(Oc3nc4ncccc4s3)cc2)CC1', 27),
  ('CC(=O)N1CC2CN(CCc3ccc(Oc4nc5ncccc5s4)cc3)CC2C1 (centres undefined)', 22),
  ('Clc1cnc2nc(Oc3ccc(CN4CCCCC4)cc3)sc2c1', 245);

* * *

Below, each entry is listed alongside its reported IC50.
Species on record: Mus musculus
Procedure summary: animal or person
Assay type: functional, organism-based
Condition summary: Balb/c, Blood
Measured attribute: IC50 (nM)

INSERT INTO results (compound, measured_attribute, data_value) VALUES
  ('c1cnc2nc(Oc3ccc(CN4CCCCC4)cc3)sc2c1', 'IC50', 14),
  ('NC(=O)C1CCN(Cc2ccc(Oc3nc4ncccc4s3)cc2)CC1', 'IC50', 37),
  ('CC(=O)N1CC2CC1CN2CCc1ccc(Oc2nc3ncccc3s2)cc1 (stereo unspecified)', 'IC50', 30),
  ('NC(=O)C1CCN(Cc2ccc(Oc3nc4cccnc4s3)cc2)CC1', 'IC50', 2040),
  ('CC(=O)N1CC2CN(CCOc3ccc(Oc4nc5ncccc5s4)cc3)CC2C1 (stereo unspecified)', 'IC50', 30),
  ('NC(=O)C1CCN(CCOc2ccc(Oc3nc4ncccc4s3)cc2)CC1', 'IC50', 30),
  ('CC(=O)N1CC2CC1CN2CCOc1ccc(Oc2nc3ncccc3s2)cc1 (stereo unspecified)', 'IC50', 18),
  ('CC(=O)N1CC2CN(Cc3ccc(Oc4nc5ncccc5s4)cc3)CC2C1 (stereo unspecified)', 'IC50', 10),
  ('c1cnc2nc(Oc3ccc(CCN4CCCCC4)cc3)sc2c1', 'IC50', 24),
  ('CC(=O)N1CC2CC1CN2Cc1ccc(Oc2nc3ncccc3s2)cc1 (stereo unspecified)', 'IC50', 7),
  ('O=C1CCCN1C1CCN(CCOc2ccc(Oc3nc4ncccc4s3)cc2)CC1', 'IC50', 20);
